MIC for assorted compounds
Test system: Mycobacterium avium
Conditions: 104

These recorded examples may help you get a feel for the data.
| compound | MIC |
| --- | --- |
| CCCOc1ccc(-c2cn(CCN3CCCCCC3)c3ccccc3c2=O)cc1 | < 4 µg/mL |
| CSc1ccc2c(c1)N(CCC1CCCCN1C)c1ccccc1S2 (stereo not given) [THIORIDAZINE] | 128 µg/mL |
| CCCOc1ccc(-c2cn(CCN3CCCCC3)c3ccccc3c2=O)cc1 | < 0.125 µg/mL |
| CCCOc1ccc(-c2cn(CCN(CC)CC)c3ccccc3c2=O)cc1 | 32 µg/mL |

Note: attention shifts to another entry.
Missing value: MIC, Mycobacterium avium, entry CN(C)CCCN1c2ccccc2Sc2ccc(Cl)cc21 [CHLORPROMAZINE] . Fill in?
64 µg/mL
